# Assay summary: Multiple-dose pharmacokinetics of 1 mg NA/10 mcg EE tablets in 18 postmenopausal women
# Assay type: in vivo, human
# Experimental context: female, human, plasma, oral, Steady-State (Day 87), 1 mg NA/10 mcg EE tablets, Mean (SD); read-out: t½ (converted)
Measured quantity: half-life (h)
One number for each entry, in h.

Please fill in: half-life reported for C#C[C@]1(O)CC[C@H]2[C@@H]3CCC4=CC(=O)CC[C@@H]4[C@H]3CC[C@@]21C = 13.3

* * *

# Assay summary: Multiple-dose pharmacokinetics of 1 mg NA/10 mcg EE tablets in 18 postmenopausal women
# Type: in vivo, human
# Experimental context: female, human, plasma, oral, Steady-State (Day 87), 1 mg NA/10 mcg EE tablets, Mean (SD)
Measured quantity: Cmax (ng/mL)
Answers are plain numbers, in ng/mL.

Please fill in: Cmax reported for C#C[C@]1(O)CC[C@H]2[C@@H]3CCC4=CC(=O)CC[C@@H]4[C@H]3CC[C@@]21C = 10.7

* * *

# Assay summary: Multiple-dose pharmacokinetics of 1 mg NA/10 mcg EE tablets in 18 postmenopausal women
# Type: in vivo, human
# Experimental context: female, human, in vivo, Tmax
Measured quantity: Tmax (h)
One number for each entry, in h.

Please fill in: Tmax reported for C#C[C@]1(O)CC[C@H]2C3CCc4cc(O)ccc4[C@H]3CCC21C (stereo partly shown) = 2.2

* * *

# Assay summary: Plasma protein binding
# Assay type: in vitro ADME
# Experimental context: human
Measured quantity: fraction unbound

Please fill in: fraction unbound reported for C#C[C@]1(O)CC[C@H]2[C@@H]3CCC4=CC(=O)CC[C@@H]4[C@H]3CC[C@@]21C [Norethindrone, norethindrone] = < 0.05

# context switch: different compound, same fraction unbound
Please fill in: fraction unbound reported for C#C[C@]1(O)CC[C@H]2C3CCc4cc(O)ccc4[C@H]3CCC21C (some centres unmarked) [Ethinyl Estradiol] = < 0.05

* * *

# Assay summary: Multiple-dose pharmacokinetics of 1 mg NA/10 mcg EE tablets in 18 postmenopausal women
# Format: in vivo, human
# Experimental context: female, human, plasma, oral, Single-Dose (Day 1), 1 mg NA/10 mcg EE tablets, Mean (SD); read-out: t½ (converted)
Measured quantity: half-life (h)
Answers are plain numbers, in h.

Please fill in: half-life reported for C#C[C@]1(O)CC[C@H]2[C@@H]3CCC4=CC(=O)CC[C@@H]4[C@H]3CC[C@@]21C [Norethindrone, norethindrone] = 10.3

* * *

# Assay summary: Multiple-dose pharmacokinetics of 1 mg NA/10 mcg EE tablets in 18 postmenopausal women
# Assay type: in vivo, human
# Experimental context: female, human, plasma, oral, Steady-State (Day 87), 1 mg NA/10 mcg EE tablets, Mean (SD); read-out: AUC(0-24)
Measured quantity: AUC(0-t) (ng·h/mL)
Numbers only, in ng·h/mL.

Please fill in: AUC(0-t) reported for C#C[C@]1(O)CC[C@H]2[C@@H]3CCC4=CC(=O)CC[C@@H]4[C@H]3CC[C@@]21C [Norethindrone, norethindrone] = 81.8

* * *

# Assay summary: Multiple-dose pharmacokinetics of 1 mg NA/10 mcg EE tablets in 18 postmenopausal women
# Format: in vivo, human
# Experimental context: female, human, plasma, oral, Single-Dose (Day 1), 1 mg NA/10 mcg EE tablets, Mean (SD)
Measured quantity: Cmax (ng/mL)
Numbers only, in ng/mL.

Please fill in: Cmax reported for C#C[C@]1(O)CC[C@H]2[C@@H]3CCC4=CC(=O)CC[C@@H]4[C@H]3CC[C@@]21C = 6

Reference source for all entries: patent US20020197286A1
